experiment: Maximum tolerated dose, tail vein injection; details: mouse, in vivo, intravenous, highest dose with death of no mice in 24 hours, tail vein
Non-standard residues stand in square brackets, D forms with d. Residues, ends and D or L forms follow the SMILES beside them. Aib = CC(C)(N)C(=O)O
assay-endpoint: MTD at 24 h (mg/kg)
Give your result in mg/kg as a bare value.

Entry CC(=O)N[C@@H](C)C(=O)N[C@@H](CO)C(=O)NC(C)(C)C(=O)N[C@@H](CC(C)C)C(=O)N[C@@H](CCCNC(=N)N)C(=O)N[C@@H](CCCCN)C(=O)N[C@@H](CC(C)C)C(=O)NC(C)(C)C(=O)N[C@@H](CCCCN)C(=O)N[C@@H](CCCNC(=N)N)C(=O)N[C@@H](CC(C)C)C(=O)N[C@@H](CC(C)C)C(N)=O [COG1410, Ac-AS-Aib-LRKL-Aib-KRLL-NH2] (Ac-AS[Aib]LRKL[Aib]KRLL-NH2) : reported MTD at 24 h = ?
8

----------
system: BV2 murine microglial cells
This section presents substances with their documented IC50 values.
# do not omit the unit; it follows the number

Please review the following examples before continuing.
{"substance": "Ac-RRRRRRRRLRVRLASHLRKLRKRLL-NH2 (N-terminus and C-terminus assumed) [polyArg (8R)]", "obs-value": "4 µM"}
{"substance": "Ac-RRLSYSRRRFLRVRLASHLRKLRKRLL-NH2 (N-terminus and C-terminus assumed) [SynB3]", "obs-value": "5.9 µM"}
{"substance": "Ac-RGGRLAYLRRRWAVLGRLRVRLASHLRKLRKRLL-NH2 (N-terminus and C-terminus assumed) [SynB5]", "obs-value": "3.2 µM"}

Query IC50 on BV2 murine microglial cells for Ac-RQIKIWFQNRRMKWKKLRVRLASHLRKLRKRLL-NH2 (N-terminus and C-terminus assumed) [COG4502]
0.7 µM

----------
experiment: in vivo; settings: male, C57B1/6, mouse, 0.4 mg/kg
Non-standard residues stand in square brackets, D forms with d. Residues, ends and D or L forms follow the SMILES beside them. Aib = CC(C)(N)C(=O)O
assay-endpoint: half-life

{"compound": "CC(=O)N[C@@H](CC(C)C)C(=O)N[C@@H](CCCNC(=N)N)C(=O)N[C@H](C(=O)N[C@@H](CCCNC(=N)N)C(=O)N[C@@H](CC(C)C)C(=O)N[C@@H](C)C(=O)N[C@@H](CO)C(=O)N[C@@H](Cc1c[nH]cn1)C(=O)N[C@@H](CC(C)C)C(=O)N[C@@H](CCCNC(=N)N)C(=O)N[C@@H](CCCCN)C(=O)N[C@@H](CC(C)C)C(=O)N[C@@H](CCCNC(=N)N)C(=O)N[C@@H](CCCCN)C(=O)N[C@@H](CCCNC(=N)N)C(=O)N[C@@H](CC(C)C)C(=O)N[C@@H](CC(C)C)C(N)=O)C(C)C", "half-life": "8 min"}

Now consider a different compound.
Reported half-life for CC(=O)N[C@@H](C)C(=O)N[C@@H](CO)C(=O)NC(C)(C)C(=O)N[C@@H](CC(C)C)C(=O)N[C@@H](CCCNC(=N)N)C(=O)N[C@@H](CCCCN)C(=O)N[C@@H](CC(C)C)C(=O)NC(C)(C)C(=O)N[C@@H](CCCCN)C(=O)N[C@@H](CCCNC(=N)N)C(=O)N[C@@H](CC(C)C)C(=O)N[C@@H](CC(C)C)C(N)=O [COG1410, Ac-AS-Aib-LRKL-Aib-KRLL-NH2] (Ac-AS[Aib]LRKL[Aib]KRLL-NH2) : what is it?
2 min

Taken from patent US20090042783A1.
